# assay.text: Biodistribution in mice bearing PC-3 xenografts
# Format: in vivo, Balb/c nu/nu mice
# condition.notes: Balb/c nu/nu, mouse, liver, iv, 100 pmol, total radioactivity, PC-3 xenografted Balb/c nu/nu mice, iv 100 pmol; 4 h pi; mean ± SD, n = 4; read-out: Liver activity uptake
For each record, write down the corresponding tissue uptake at 4 h.
Please respond with the number in %ID/g and leave the unit unwritten.

Which tissue uptake at 4 h value is on record for CC(C)C[C@H](NC(=O)C[C@H](O)[C@H](CC(C)C)NC(=O)[C@H](Cc1c[nH]cn1)NC(=O)CN(C)C(=O)[C@@H](NC(=O)[C@H](C)NC(=O)[C@](C)(Cc1c[nH]c2ccccc12)NC(=O)[C@H](CCC(N)=O)NC(=O)[C@@H](Cc1ccccc1)NC(=O)CN1CCC(NC(=O)COCCOCCNC(=O)CCC(C(=O)O)N2CCN(CC(=O)O)CCN(CC(=O)O)CCN(CC(=O)O)CC2)CC1)C(C)C)C(N)=O (some centres unmarked) [[^177Lu]Lu-PKB2, metal not drawn] ?
0.2

Which tissue uptake at 4 h value is on record for CC(C)C[C@H](NC(=O)C[C@H](O)[C@H](CC(C)C)NC(=O)[C@H](Cc1c[nH]cn1)NC(=O)CN(C)C(=O)[C@@H](NC(=O)[C@H](C)NC(=O)[C@](C)(Cc1c[nH]c2ccccc12)NC(=O)[C@H](CCC(N)=O)NC(=O)[C@@H](Cc1ccccc1)NC(=O)CN1CCC(NC(=O)COCCOCCNC(=O)CN2CCN(CC(=O)O)CCN(CC(=O)O)CCN(CC(=O)O)CC2)CC1)C(C)C)C(N)=O [[^177Lu]Lu-PKB3, metal not drawn] ?
0.42

The reported measurements were obtained from paper PMC12615863.
